target: SMARCA2 (Homo sapiens, UniProt P51531); test: MSD SMARCA2 degradation in A549 cell line; assay type: cell-based; design: endogenous in cells; conditions: A549 cells, 24 h, read-out: SMARCA2 MSD A549 degradation 24 h: Average external-Abs DC50
Sequence (P51531 whole entry): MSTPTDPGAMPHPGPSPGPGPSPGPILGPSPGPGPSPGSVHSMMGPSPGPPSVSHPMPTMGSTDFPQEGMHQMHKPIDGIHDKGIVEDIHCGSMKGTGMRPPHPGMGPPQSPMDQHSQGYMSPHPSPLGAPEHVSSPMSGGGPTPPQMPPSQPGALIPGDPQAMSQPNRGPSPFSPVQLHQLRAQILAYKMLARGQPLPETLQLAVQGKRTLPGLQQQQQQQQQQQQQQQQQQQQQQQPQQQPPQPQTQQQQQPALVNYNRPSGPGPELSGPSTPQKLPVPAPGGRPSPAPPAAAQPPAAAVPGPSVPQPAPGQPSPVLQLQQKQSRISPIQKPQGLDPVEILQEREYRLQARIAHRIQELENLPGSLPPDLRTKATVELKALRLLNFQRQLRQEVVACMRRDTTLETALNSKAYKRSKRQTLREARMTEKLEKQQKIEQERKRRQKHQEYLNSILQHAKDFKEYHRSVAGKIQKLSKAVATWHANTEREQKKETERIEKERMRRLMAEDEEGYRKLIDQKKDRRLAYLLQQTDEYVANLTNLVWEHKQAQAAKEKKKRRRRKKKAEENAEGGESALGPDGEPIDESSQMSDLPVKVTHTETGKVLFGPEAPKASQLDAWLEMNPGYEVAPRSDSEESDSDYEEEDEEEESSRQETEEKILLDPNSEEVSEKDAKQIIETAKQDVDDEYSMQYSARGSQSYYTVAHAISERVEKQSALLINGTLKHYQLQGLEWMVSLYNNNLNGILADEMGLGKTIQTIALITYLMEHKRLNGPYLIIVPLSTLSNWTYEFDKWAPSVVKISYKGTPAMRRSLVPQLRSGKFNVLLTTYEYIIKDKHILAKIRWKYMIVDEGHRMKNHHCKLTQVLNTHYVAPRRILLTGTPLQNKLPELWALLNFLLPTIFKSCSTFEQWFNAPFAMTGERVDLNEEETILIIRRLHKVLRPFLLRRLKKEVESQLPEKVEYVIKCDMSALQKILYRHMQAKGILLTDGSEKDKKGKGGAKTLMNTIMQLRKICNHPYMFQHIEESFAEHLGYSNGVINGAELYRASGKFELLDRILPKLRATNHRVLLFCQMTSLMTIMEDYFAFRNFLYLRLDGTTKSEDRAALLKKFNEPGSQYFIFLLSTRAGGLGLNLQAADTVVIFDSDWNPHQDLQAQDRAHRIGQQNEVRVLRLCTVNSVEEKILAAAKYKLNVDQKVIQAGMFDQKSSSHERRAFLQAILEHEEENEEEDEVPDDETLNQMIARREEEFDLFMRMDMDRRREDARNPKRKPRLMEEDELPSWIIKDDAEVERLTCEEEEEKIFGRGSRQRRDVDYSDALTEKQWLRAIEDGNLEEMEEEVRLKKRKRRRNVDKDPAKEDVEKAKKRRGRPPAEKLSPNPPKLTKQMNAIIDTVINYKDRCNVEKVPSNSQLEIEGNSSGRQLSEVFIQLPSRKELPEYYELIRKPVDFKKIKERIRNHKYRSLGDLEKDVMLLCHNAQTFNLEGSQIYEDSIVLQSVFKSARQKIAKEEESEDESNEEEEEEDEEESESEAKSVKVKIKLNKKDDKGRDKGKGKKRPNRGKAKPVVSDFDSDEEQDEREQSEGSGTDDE
Listed here are compounds together with their documented DC50.

# compound, measured.target, DC50
data = [
    ("Cc1ncsc1-c1ccc(CNC(=O)[C@@H]2C[C@@H](O)CN2C(=O)C(c2cc([C@H]3CC[C@H](N4CCC(c5cnc(N6C7CCC6CN(c6cc(-c8ccccc8O)nnc6N)C7)nc5)CC4)CC3)no2)C(C)C)cc1 (stereo partly drawn)", "SMARCA2 (Homo sapiens, UniProt P51531)", "< 100 nM"),
    ("Cc1ncsc1-c1ccc(CNC(=O)[C@@H]2C[C@@H](O)CN2C(=O)C(c2cc(N3CCC(CCN4CCC(c5cnc(N6C7CCC6CN(c6cc(-c8ccccc8O)nnc6N)C7)nc5)CC4)CC3)no2)C(C)C)cc1 (stereo partly drawn)", "SMARCA2 (Homo sapiens, UniProt P51531)", "< 100 nM"),
    ("Cc1ncsc1-c1ccc(CNC(=O)[C@@H]2C[C@@H](O)CN2C(=O)C(c2cc(N3CCC(N4CCC(c5cnc(N6C7CCC6CN(c6cc(-c8ccccc8O)nnc6N)C7)nc5)CC4)CC3)no2)C(C)C)cc1 (mixture of isomers)", "SMARCA2 (Homo sapiens, UniProt P51531)", "< 100 nM"),
]

* * *

Below, each entry is listed alongside its reported DC50.
molecular target: SMARCA2 (Homo sapiens, UniProt P51531); assay: SMARCA2 Western blot MV4-11 degradation; format: cell-based; design: SMARCA2 and SMARCA4 protein degradation in MV4-11 cells; endogenous in cells; host or cells: MV4-11; details: MV4-11 cells, 24 h; read-out: SMARCA2 MSD MV411 degradation 24 h: Mean external-Abs DC50

# molecule, DC50
records = [
    ("Cc1ncsc1-c1cnc(CNC(=O)[C@@H]2C[C@@H](O)CN2C(=O)[C@@H](NC(=O)[C@H]2CC3(C2)C[C@H](N2CCC(c4ccc(N5C6CCC5CN(c5cc(-c7ccccc7O)nnc5N)C6)cc4)CC2)C3)C(C)(C)C)nc1 (stereo partly shown)", "> 1 µM"),
    ("Cc1ncsc1-c1ccc(CNC(=O)[C@@H]2C[C@@H](O)CN2C(=O)[C@@H](c2cc(N3CCC(CCN4CCC(c5cnc(N6C7CCC6CN(c6cc(-c8ccccc8O)nnc6N)C7)nc5)CC4)CC3)no2)C(C)C)cc1", "0.1 to 0.5 µM"),
    ("Cc1ncsc1-c1ccc([C@H](C)NC(=O)[C@@H]2C[C@@H](O)CN2C(=O)[C@@H](NC(=O)[C@H]2CCC3(CC2)C[C@H](N2CCC(c4cnc(N5C6CCC5CN(c5cc(-c7ccccc7O)nnc5N)C6)nc4)CC2)C3)C(C)(C)C)cc1 (stereo in doubt) [I-15]", "< 0.1 µM"),
    ("Cc1ncsc1-c1ccc(CNC(=O)[C@@H]2C[C@@H](O)CN2C(=O)C(c2cc([C@H]3CC[C@@H](N4CCC(c5cnc(N6C7CCC6CN(c6cc(-c8ccccc8O)nnc6N)C7)nc5)CC4)CC3)no2)C(C)C)cc1 (stereo partly shown)", "< 0.1 µM"),
]

* * *

Dmax: recorded values
Biological target: SMARCA4 (Homo sapiens)
Construct: SMARCA2 and SMARCA4 protein degradation in MV4-11 cells; endogenous in cells; host or cells: MV4-11
Sequence (P51532 whole entry): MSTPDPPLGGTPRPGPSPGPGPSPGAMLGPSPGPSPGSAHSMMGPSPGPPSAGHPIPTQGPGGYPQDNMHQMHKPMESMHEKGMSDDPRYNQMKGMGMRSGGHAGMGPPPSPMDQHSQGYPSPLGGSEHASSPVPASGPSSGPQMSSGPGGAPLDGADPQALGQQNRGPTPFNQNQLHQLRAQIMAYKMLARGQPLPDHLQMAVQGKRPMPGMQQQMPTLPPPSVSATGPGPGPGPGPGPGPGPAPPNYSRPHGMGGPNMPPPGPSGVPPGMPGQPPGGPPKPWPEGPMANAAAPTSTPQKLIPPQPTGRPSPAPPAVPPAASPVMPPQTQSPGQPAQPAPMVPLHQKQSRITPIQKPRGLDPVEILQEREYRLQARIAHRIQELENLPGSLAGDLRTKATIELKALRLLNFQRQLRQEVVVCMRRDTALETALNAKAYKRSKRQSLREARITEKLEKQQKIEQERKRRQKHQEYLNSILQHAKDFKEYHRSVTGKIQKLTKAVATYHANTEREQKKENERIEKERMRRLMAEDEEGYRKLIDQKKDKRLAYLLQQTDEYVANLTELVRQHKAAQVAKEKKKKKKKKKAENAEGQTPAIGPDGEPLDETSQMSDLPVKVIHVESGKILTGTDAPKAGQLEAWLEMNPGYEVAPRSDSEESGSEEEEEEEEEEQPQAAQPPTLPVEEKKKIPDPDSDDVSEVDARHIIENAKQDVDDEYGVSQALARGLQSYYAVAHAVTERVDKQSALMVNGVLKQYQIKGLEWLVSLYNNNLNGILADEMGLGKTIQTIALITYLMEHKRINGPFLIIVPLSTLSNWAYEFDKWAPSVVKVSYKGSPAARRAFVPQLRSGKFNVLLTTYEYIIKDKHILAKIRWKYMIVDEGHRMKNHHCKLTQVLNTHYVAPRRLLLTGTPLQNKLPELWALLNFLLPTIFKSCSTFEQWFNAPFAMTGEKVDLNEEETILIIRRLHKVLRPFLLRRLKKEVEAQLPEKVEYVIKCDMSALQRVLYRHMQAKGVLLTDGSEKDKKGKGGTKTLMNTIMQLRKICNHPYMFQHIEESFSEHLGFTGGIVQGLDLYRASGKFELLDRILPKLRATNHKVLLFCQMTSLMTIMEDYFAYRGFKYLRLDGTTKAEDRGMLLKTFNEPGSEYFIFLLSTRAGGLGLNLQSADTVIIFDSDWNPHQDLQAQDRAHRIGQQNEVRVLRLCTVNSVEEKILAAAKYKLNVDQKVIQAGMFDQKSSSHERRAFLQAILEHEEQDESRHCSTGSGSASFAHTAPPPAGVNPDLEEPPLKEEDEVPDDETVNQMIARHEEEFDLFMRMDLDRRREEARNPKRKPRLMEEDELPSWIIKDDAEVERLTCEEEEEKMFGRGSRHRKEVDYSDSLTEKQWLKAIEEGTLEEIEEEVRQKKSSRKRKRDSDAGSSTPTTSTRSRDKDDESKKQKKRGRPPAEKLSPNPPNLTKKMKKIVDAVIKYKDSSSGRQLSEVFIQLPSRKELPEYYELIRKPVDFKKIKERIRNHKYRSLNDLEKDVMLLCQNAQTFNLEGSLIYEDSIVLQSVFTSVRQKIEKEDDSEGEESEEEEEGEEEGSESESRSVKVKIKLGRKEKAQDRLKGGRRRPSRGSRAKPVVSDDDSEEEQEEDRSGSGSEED
Experiment: SMARCA4 Western blot MV4-11 degradation
Assay type: cell-based
Details: MV4-11, MV4-11 cells, 24 h; read-out: SMARCA4 MSD MV411 degradation 24 h: average Dmax %
Method: Example 54. SMARCA2 and SMARCA 4 Western Blot MV4-11 Degradation Cells were seeded into 6-well plates (MV4-11: 4×10^6 cells/well/1 ml) and 1 ml of 2× compound solution was added into the well to make the final concentration and the plates were mixed well and incubated for 24 hours (No cytotoxicity was observed). The cell were collected with media and spun at 3000 rpm for 5 minutes. […] The membrane was washed three times with TBST, 5 minutes each and lastly the LiCOR was read. […]

# compound, Dmax
measured = [
    ("Cc1ncsc1-c1cnc(CNC(=O)[C@@H]2C[C@@H](O)CN2C(=O)[C@@H](NC(=O)[C@H]2CC3(C2)C[C@H](N2CCC(c4ccc(N5C6CCC5CN(c5cc(-c7ccccc7O)nnc5N)C6)cc4)CC2)C3)C(C)(C)C)cn1 (stereo partly shown)", "50 to 70%"),
    ("Cc1n[nH]c(C)c1-c1ccc(CNC(=O)[C@@H]2C[C@@H](O)CN2C(=O)[C@@H](NC(=O)[C@H]2CC3(C2)C[C@H](N2CCC(c4cnc(N5C6CCC5CN(c5cc(-c7ccccc7O)nnc5N)C6)nc4)CC2)C3)C(C)(C)C)cc1 (stereo partly shown)", "< 50%"),
    ("Cc1ncsc1-c1ccc(CNC(=O)[C@@H]2C[C@@H](O)CN2C(=O)[C@@H](NC(=O)N2CC3(CC(N4CCC(c5cnc(N6C7CCC6CN(c6cc(-c8ccccc8O)nnc6N)C7)nc5)CC4)C3)C2)C(C)(C)C)cc1", "50 to 70%"),
    ("Cc1ncsc1-c1ccc(CNC(=O)[C@@H]2C[C@@H](O)CN2C(=O)[C@@H](NC(=O)N2CCC(N3CCC(c4cnc(N5C6CCC5CN(c5cc(-c7ccccc7O)nnc5N)C6)nc4)CC3)CC2)C(C)(C)C)cc1", "< 50%"),
]

* * *

Reported DC50 by item:
target: SMARCA2 (Homo sapiens, UniProt P51531); experiment: SMARCA2 Western blot MV4-11 degradation; assay type: cell-based; parameters: SMARCA2 and SMARCA4 protein degradation in MV4-11 cells; endogenous in cells; host or cells: MV4-11; details: MV4-11 cells, 24 h; read-out: SMARCA2 MSD MV411 degradation 24 h: Mean external-Abs DC50
measured.endpoint: DC50

# molecule, measured.target, reading
measured = [
    ("Cc1ncsc1-c1ccc(CNC(=O)[C@@H]2C[C@@H](O)CN2C(=O)[C@@H](NC(=O)[C@H]2CC3(C2)C[C@H](N2CC4(CN(c5cnc(N6C7CCC6CN(c6cc(-c8ccccc8O)nnc6N)C7)nc5)C4)C2)C3)C(C)(C)C)cc1 (stereo partly drawn) [I-12]", "SMARCA2 (Homo sapiens, UniProt P51531)", "< 0.1 µM"),
    ("Cc1ncsc1-c1cnc(CNC(=O)[C@@H]2C[C@@H](O)CN2C(=O)[C@@H](NC(=O)[C@H]2CC3(C2)C[C@H](N2CCC(c4ccc(N5C6CCC5CN(c5cc(-c7ccccc7O)nnc5N)C6)cc4)CC2)C3)C(C)(C)C)cn1 (stereo partly drawn)", "SMARCA2 (Homo sapiens, UniProt P51531)", "> 1 µM"),
    ("Cc1ncsc1-c1ccc(CNC(=O)[C@@H]2C[C@@H](O)CN2C(=O)[C@@H](c2cc(N3CCC(N4CCC(c5cnc(N6C7CCC6CN(c6cc(-c8ccccc8O)nnc6N)C7)nc5)CC4)CC3)no2)C(C)C)cc1", "SMARCA2 (Homo sapiens, UniProt P51531)", "< 0.1 µM"),
    ("Cc1ncsc1-c1ccc(CNC(=O)[C@@H]2C[C@@H](O)CN2C(=O)[C@@H](NC(=O)N2CCC(N3CCC(c4cnc(N5C6CCC5CN(c5cc(-c7ccccc7O)nnc5N)C6)nc4)CC3)CC2)C(C)(C)C)cc1", "SMARCA2 (Homo sapiens, UniProt P51531)", "0.501 to 1 µM"),
    ("Cc1ncsc1-c1ccc(CNC(=O)[C@@H]2C[C@@H](O)CN2C(=O)[C@@H](NC(=O)C2CC3(C2)CC(N2CCC(c4cnc(N5CCN(c6cc(-c7ccccc7O)nnc6N)CC5)nc4)CC2)C3)C(C)(C)C)cc1 (stereo partly drawn)", "SMARCA2 (Homo sapiens, UniProt P51531)", "< 0.1 µM"),
    ("Cc1ncsc1-c1ccc(CNC(=O)[C@@H]2C[C@@H](O)CN2C(=O)[C@@H](c2cc(OCCCCN3CCC(c4cnc(N5C6CCC5CN(c5cc(-c7ccccc7O)nnc5N)C6)nc4)CC3)no2)C(C)C)cc1 [I-55]", "SMARCA2 (Homo sapiens, UniProt P51531)", "< 0.1 µM"),
    ("Cc1ncsc1-c1ccc(CNC(=O)[C@@H]2C[C@@H](O)CN2C(=O)[C@@H](NC(=O)C2CC3(C2)CC(N2CCC(COc4ccc(N5C6CCC5CN(c5cc(-c7ccccc7O)nnc5N)C6)cn4)CC2)C3)C(C)(C)C)cc1 (stereo partly drawn)", "SMARCA2 (Homo sapiens, UniProt P51531)", "> 1 µM"),
    ("Cc1ncsc1-c1ccc([C@H](C)NC(=O)[C@@H]2C[C@@H](O)CN2C(=O)[C@@H](NC(=O)[C@H]2CC3(C2)C[C@H](N2CCC(c4cnc(N5C6CCC5CN(c5cc(-c7ccccc7O)nnc5N)C6)nc4)CC2)C3)C(C)(C)C)cc1 (single isomer, unassigned) [I-2]", "SMARCA2 (Homo sapiens, UniProt P51531)", "< 0.1 µM"),
    ("Cc1ncsc1-c1ccc(CNC(=O)[C@@H]2C[C@@H](O)CN2C(=O)[C@@H](NC(=O)[C@H]2CC3(C2)C[C@H](N2CCC(c4ccc(N5C6CCC5CN(c5cc(-c7ccccc7O)nnc5N)C6)cc4)CC2)C3)C(C)(C)C)cn1 (stereo partly drawn) [I-27]", "SMARCA2 (Homo sapiens, UniProt P51531)", "0.1 to 0.5 µM"),
]
